Measured log10(EC50), listed per entry for reference.
- Test system: PBMC
- Protocol Text: Human PBMC IL-2 assay
- Type: cell-based
- Condition Details: anti-CD3/CD28 stimulation overnight, IL-2 level
A difference of one corresponds to tenfold EC50; all values are log10 with EC50 in nM.

Worked set:
>>> observed_result("C[C@@H]1CN2c3c(c(=O)n(C)c4ccc(C#N)nc34)OC[C@@H]2CN1[C@H](C)c1ccc(C(F)F)cc1 (stereo in doubt) [Compound 314]")
1.34
>>> observed_result("CC[C@H]1CN(C2CCCOc3cc(C(F)(F)F)ccc32)[C@H](CC)CN1c1nc(=O)n(C)c2ccc(C#N)nc12 (stereo partly drawn) [Compound 154]")
2.87
>>> observed_result("Cn1c(=O)c(C(N)=O)c(N2CCC3(CCN(c4ccc(OC(F)(F)F)cc4)C3)CC2)c2nc(C#N)ccc21 [Compound 6]")
3.26
>>> observed_result("CC[C@@H]1CN2c3c(c(=O)n(C)c4ccc(C#N)nc34)OC[C@@H]2CN1[C@@H](c1ccc(C(F)(F)F)cc1)C(C)C [Compound 272]")
2.51
>>> observed_result("CC[C@H]1CN([C@@H](CC)c2ccc(F)c(F)c2)[C@H](CC)CN1c1nc2nncn2c2ccc(C#N)nc12 (stereo in doubt) [Compound 200]")
1.62

Item: [2H]C([2H])([2H])n1c(=O)c2c(c3nc(C#N)ccc31)N1C[C@@H](CC)N([C@@H](CC)c3ccc(C(F)(F)F)cc3)C[C@H]1CO2 (stereo in doubt) [Compound 251] | log10(EC50): 1.70

Item: CC[C@@H]1CN2c3c(c(=O)n(C)c4ccc(C#N)nc34)OC[C@@H]2CN1[C@@H](CC)c1ccc(C(F)(F)F)cc1 [Compound 67] | log10(EC50): 1.60

====

- Experimental System: DGKa (Homo sapiens (Human), UniProt P23743);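 note: biochemical DGK kinase assay, ADP-Glo luminescence from ADP made by phosphorylating 1,2-dioleoyl-sn-glycerol, 20 min compound preincubation then 40 min reaction at 25 °C, 1% DMSO control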
- Sequence (P23743 whole entry): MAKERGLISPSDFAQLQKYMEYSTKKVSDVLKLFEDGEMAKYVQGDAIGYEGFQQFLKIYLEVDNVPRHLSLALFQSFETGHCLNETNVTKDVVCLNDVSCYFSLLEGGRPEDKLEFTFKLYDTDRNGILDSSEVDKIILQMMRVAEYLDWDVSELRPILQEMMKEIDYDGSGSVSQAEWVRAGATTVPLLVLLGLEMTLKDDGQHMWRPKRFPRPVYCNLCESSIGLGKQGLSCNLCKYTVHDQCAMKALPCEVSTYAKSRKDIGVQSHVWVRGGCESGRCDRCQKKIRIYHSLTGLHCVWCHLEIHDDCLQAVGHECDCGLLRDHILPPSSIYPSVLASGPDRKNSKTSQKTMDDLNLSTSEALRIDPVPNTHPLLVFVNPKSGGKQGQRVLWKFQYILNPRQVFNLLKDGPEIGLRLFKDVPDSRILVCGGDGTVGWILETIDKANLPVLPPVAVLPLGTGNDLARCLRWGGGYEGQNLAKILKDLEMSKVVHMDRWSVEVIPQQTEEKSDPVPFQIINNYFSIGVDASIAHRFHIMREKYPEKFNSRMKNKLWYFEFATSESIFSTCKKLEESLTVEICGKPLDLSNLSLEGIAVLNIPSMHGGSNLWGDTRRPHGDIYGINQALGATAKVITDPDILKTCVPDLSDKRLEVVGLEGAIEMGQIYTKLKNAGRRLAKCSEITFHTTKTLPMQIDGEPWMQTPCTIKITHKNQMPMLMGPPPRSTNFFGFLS
Measured IC50, listed per entry for reference.
// return numeric value only (unit: nM, not printed)

>>> observed_result("CC[C@@H]1CN(c2nc(=O)n(C)c3ccc(C#N)nc23)[C@@H](C)CN1[C@@H](c1ccc(F)cc1)c1ccc(SC(F)(F)F)cn1")
13

Item CC[C@H]1CN([C@@H](CC)c2ccc(C(F)(F)F)cc2)[C@H](CC)CN1c1nc2nncn2c2ccc(C#N)nc12 was tested on DGKa (Homo sapiens (Human), UniProt P23743); the reported IC50 is 16

Item Cn1c(=O)nc(N2CCC3(CC2)COC(c2ccc(OC(F)(F)F)cc2)=N3)c2nc(Cl)ccc21 was tested on DGKa (Homo sapiens (Human), UniProt P23743); the reported IC50 is 17

====

- System: PBMC
- Protocol Text: Human PBMC IL-2 assay
- Assay type: cell-based
- Condition Details: anti-CD3/CD28 stimulation overnight, IL-2 level
Measured log10 EC50, listed per entry for reference.
A difference of one corresponds to tenfold EC50; all values are log10 with EC50 in nM.

>>> observed_result("CC[C@@H]1CN2c3c(c(=O)n(C)c4ccc(C#N)nc34)OC[C@@H]2CN1[C@H](CC)c1ccc(S(C)(=O)=O)cc1 (stereo in doubt)")
3.86

Kindly review the next compound as well.
Item: CC[C@@H]1CN2c3c(c(=O)n(C)c4ccc(C#N)nc34)OC[C@@H]2CN1[C@@H](CC)c1c(F)cc(F)cc1F (stereo in doubt) | log10 EC50: 1.98

====

- Tested on: PBMC
- Protocol Text: Human PBMC IL-2 assay
- Assay type: cell-based
- Condition Details: anti-CD3/CD28 stimulation overnight, IL-2 level
Measured Quantity: pEC50
Remember, pEC50 is on a log scale: it is -log10 of the molar concentration.

Worked set:
>>> observed_result("C[C@@H]1CN2c3c(c(=O)n(C)c4ccc(C#N)nc34)OC[C@@H]2CN1[C@H](C)c1ccc(C(C)(F)F)cc1 (stereo in doubt)")
6.98
>>> observed_result("CC[C@@H]1CN2c3c(c(=O)n(C)c4ccc(C#N)nc34)OC[C@@H]2CN1[C@H](CC)c1ccc(C(F)(F)F)c(Cl)c1 (stereo in doubt)")
6.50

Item: CC[C@@H]1CN2c3c(c(=O)n(C)c4ccc(C#N)nc34)OC[C@@H]2CN1[C@@H](CC)c1ccc(OC(F)(F)F)cc1 (stereo in doubt) | pEC50: 7.41
